Source listed as patent US11415579B2.

Biological target: Cdk2(H71C) (C177A) (Homo sapiens, UniProt P24941, C177A/H71C)
Construct: poly-histidine; made in house; host or cells: E. coli
Test: Kinetic thiol consumption assay with Cdk2 mutant H71C
Assay type: binding
Details: Protein: Cdk2; cysteine position H71C; additional mutation C177A; in h^-1
outcome measure: Rate constant with Cdk2 H71C
// return just the number, without any unit appended

• C=CC(=O)N(Cc1ccc2c(c1)CCO2)C1CCCC1 = 0.2251
• C=CC(=O)Nc1cccc(-c2nnnn2C2CC2)c1 = 0.04338
• C=CC(=O)Nc1cccc(Nc2ncnc3cc(OC)c(OC)cc23)c1 = 0.009473
• C=CC(=O)N(C)C1CC(OCC)C12CCC2 (centres unmarked) = 0.004408
• C=CC(=O)Nc1ccc(C(=O)OC)cc1 = 0.06327
• C=CC(=O)NCC1CN(C2CC2)CCO1 (centres unmarked) = 0.009335
• C=CC(=O)N1CCC2(CCCCCC2)C1 = 0.007628
• C=CC(=O)N1CCCCCC1c1cccnc1 (centres unmarked) = 0.002376
• C=CC(=O)Nc1ccccc1C(=O)c1ccccc1 = 0.03859
• C=CC(=O)N1CCCc2cc(C(=O)OC)ccc21 = 0.3666

// next entry
Problem: Lab note: Cdk2(H71C) (C177A) (Homo sapiens, UniProt P24941, C177A/H71C) assay, enter Rate constant with Cdk2 H71C for C=CC(=O)NC1C[C@@H](C(=C)C)CC=C1C (some centres unmarked) here
Result: 0.002542
